System: OVCAR-8 ovarian
Test: NCI-60 one-dose screen, 48 h (100 = growth as untreated, 0 = no growth, -100 = all killed)
Settings: 10 µM unless noted
Protocol: Growth inhibition of the OVCAR-8 human tumor cell line is measured as a screen for anti-cancer activity. Cells are grown in 96 well plates and exposed to the test compound for 48 hours. Compounds are tested at a single concentration, which is 10^-5 M for most compounds. The reported endpoint is percent growth (GI% or GIPRCNT), where numbers from 0 - 100% represent growth inhibition, and numbers from -100% - 0 represent cell death. For example, a value of 40 represents 60% growth inhibition. […]
This is part of a sample that, as a whole, favours compounds with a hit. Of some 83,000 tested, about 20% had one in any assay.
Kindly return fulfilled if reported growth is no lower than 40%; return not fulfilled if it is lower.

Some solved cases for reference:
- CCn1c(C)nc([N+](=O)[O-])c1Sc1nc(N)nc2nc[nH]c12: not fulfilled
- C=CC(=O)NC(=O)Nc1ccccc1Cl: fulfilled
- O=C(Nc1ccc(F)cc1)Nc1ccc(Br)c(C(F)(F)F)c1: not fulfilled
- O=C(Nc1ccc(-n2cc(-c3ccncc3)c(-c3ccc(O)c(Cl)c3)n2)cc1)Nc1ccc(Cl)c(C(F)(F)F)c1: not fulfilled
- N#CC(C#N)=C(C#N)c1c[nH]c2ccccc12: fulfilled
- CCCOC(=O)c1ccc([N+](=O)[O-])o1: fulfilled
- CC(C)C(=O)Nc1nc2c(s1)CCCc1ccn(S(=O)(=O)c3ccccc3)c1-2: fulfilled
- COc1ccc(-c2ccc(NC(=O)Nc3cccc(C(F)(F)F)c3)c(C)n2)cc1: fulfilled
- COc1ccc(Cl)cc1NC(=O)c1cc2c(n1C)-c1nc(NC(=O)C(C)(C)C)sc1CC2: fulfilled
- C=CCn1c(SCC(=O)Nc2ccc(/C(C)=N\O)cc2)nnc1-c1cc(-c2ccc(OC)cc2)nc2ccccc12: not fulfilled

(Q) Could you please find out whether COc1ccc2c(c1)OC(N)=C(C#N)C2c1ccc(F)cc1 (stereo not given) has growth that meets 40% or exceeds it?
(A) not fulfilled

(Q) Could you please find out whether CCCCCC/C=N/Nc1ccc([N+](=O)[O-])cn1 has growth that meets 40% or exceeds it?
(A) fulfilled

(Q) Could you please find out whether C=C1C(=O)O[C@H]2[C@H]1CC/C(COC(=O)c1cccc3ccccc13)=C\CC[C@@]1(C)O[C@@H]21 has growth that meets 40% or exceeds it?
(A) not fulfilled

(Q) Could you please find out whether COc1ccc(/C(Cl)=N/N=C(\Cl)c2cc(OC)c(OC)c(OC)c2)cc1OC(C)=O has growth that meets 40% or exceeds it?
(A) fulfilled

(Q) Could you please find out whether C=CC(=O)Nc1cccc(Nc2nc(Nc3ccc(OCCOC(F)F)cc3)ncc2F)c1 has growth that meets 40% or exceeds it?
(A) fulfilled

(Q) Could you please find out whether NC(CSC(c1ccccc1)(c1ccccc1)c1ccc(F)cc1)C(=O)O (stereo not given) has growth that meets 40% or exceeds it?
(A) not fulfilled

(Q) Could you please find out whether CC(C)(C)C(=O)Nc1nc2c(s1)CCc1ccn(S(=O)(=O)c3ccccc3)c1-2 has growth that meets 40% or exceeds it?
(A) fulfilled

(Q) Could you please find out whether COc1ccc(/C=N/C2=NNC(C)(c3ccccc3O)N2C(Cc2c[nH]c3ccccc23)C(=O)O)cc1 (stereo not given) has growth that meets 40% or exceeds it?
(A) not fulfilled

(Q) Could you please find out whether CCN(CC)c1ccc(C2CC(c3cc(OC)c(OC)c(OC)c3)=NN2)cc1 (stereo not given) has growth that meets 40% or exceeds it?
(A) not fulfilled

(Q) Could you please find out whether CC(C)(c1ccc(OCC(O)CNCc2ccco2)cc1)c1ccc(OCC(O)CNCc2ccco2)cc1 (stereo not given) has growth that meets 40% or exceeds it?
(A) fulfilled

(Q) Could you please find out whether OC(COc1ccccc1Cl)CN1CCN(c2ccc(Cl)cc2)CC1 (stereo not given) has growth that meets 40% or exceeds it?
(A) fulfilled

(Q) Could you please find out whether CCCCCn1ncc(-c2c(O)c(O)cc3c(O)c(-c4c(C)cc5c(-c6cnn(CCCCC)n6)c(O)c(O)cc5c4O)c(C)cc23)n1 has growth that meets 40% or exceeds it?
(A) not fulfilled

(Q) Could you please find out whether COc1ccc2c(-c3ccc(F)cc3)c(C#N)c(=NC(C)=O)oc2c1 has growth that meets 40% or exceeds it?
(A) fulfilled

(Q) Could you please find out whether COc1cc2nc(C(=O)N3CCCCC3)cc(Nc3ccccc3)c2cc1OC has growth that meets 40% or exceeds it?
(A) fulfilled

(Q) Could you please find out whether CCOc1ccc(Cc2nccc3cc(OCC)c(OCC)cc23)cc1OCC has growth that meets 40% or exceeds it?
(A) fulfilled

(Q) Could you please find out whether Nc1ncnc2c1ccn2-c1cccc(NC(=O)c2cccc(C(F)(F)F)c2)c1 has growth that meets 40% or exceeds it?
(A) fulfilled

(Q) Could you please find out whether CCc1c(C)c2cc3nc(NCc4ccccc4)oc3c(C)c2oc1=O has growth that meets 40% or exceeds it?
(A) fulfilled

(Q) Could you please find out whether C=C1C(=O)O[C@H]2[C@H]1CC/C(CNC(=O)/C1=C/CC[C@@]3(C)O[C@H]3[C@H]3OC(=O)C(=C)[C@@H]3CC1)=C\CC[C@@]1(C)O[C@@H]21 has growth that meets 40% or exceeds it?
(A) fulfilled

(Q) Could you please find out whether FC(F)(F)c1cn(CC2CNC2)c2ncnc(Cl)c12 has growth that meets 40% or exceeds it?
(A) fulfilled

* * *

Test system: HS 578T breast
Assay: NCI-60 one-dose screen, 48 h (100 = growth as untreated, 0 = no growth, -100 = all killed)
Conditions: 10 µM unless noted
The panel holds about 83,000 compounds, 20% with a hit somewhere; the sample as a whole holds those more often.
Kindly return MET if reported growth is no lower than 80%; return NOT MET if it is lower.

Some solved cases for reference:
* COc1ccc(Cl)cc1NC(=O)c1cc2c([nH]1)-c1nc(NC(=O)C(C)C)sc1CC2 | MET
* Oc1ccc(O)c(-[n+]2ccccc2)c1 | MET
* FC(F)(F)c1cn(CC2CNC2)c2ncnc(Cl)c12 | MET

(Q) Could you please find out whether CCN(CC)C(=O)C1CCN(C(=O)c2ccccc2)CC1 has growth that meets 80% or exceeds it?
(A) MET

(Q) Could you please find out whether O=c1c2ccccc2[nH]n1Cc1ccc2c(c1)OCO2 has growth that meets 80% or exceeds it?
(A) MET

(Q) Could you please find out whether CC1(C)Cc2c(Br)c(Br)c(Br)c(OCC(O)CN3CCN(c4ccccn4)CC3)c2O1 (stereo not given) has growth that meets 80% or exceeds it?
(A) MET

(Q) Could you please find out whether CCn1c(SCC(=O)c2ccc(Br)cc2)nnc1-c1cc2c([nH]c3ccccc32)c(-c2cccc(O)c2)n1 has growth that meets 80% or exceeds it?
(A) NOT MET

(Q) Could you please find out whether COc1ccc(/C=N/C2=NNC(C)(c3ccccc3O)N2C(Cc2c[nH]c3ccccc23)C(=O)O)cc1 (stereo not given) has growth that meets 80% or exceeds it?
(A) NOT MET

(Q) Could you please find out whether O=C(c1ccccc1)[C@H]1[C@@H]2CCCN2[C@]2(C(=O)Nc3ccc(F)cc32)[C@]12C(=O)Nc1ccccc12 has growth that meets 80% or exceeds it?
(A) MET

(Q) Could you please find out whether O=C(O)c1ccc2nc(-c3ccc(OCCCCCOc4ccc(-c5nc6ccc(C(=O)O)cc6[nH]5)cc4)cc3)[nH]c2c1 has growth that meets 80% or exceeds it?
(A) MET

(Q) Could you please find out whether CCC1S/C(=N\N=C(/C)c2cccs2)N(c2ccccc2)C1=O (stereo not given) has growth that meets 80% or exceeds it?
(A) MET

(Q) Could you please find out whether N#CC1=C(N)Oc2c(ccc3ccccc23)C1c1cc(=O)oc2ccc(Cl)cc12 (stereo not given) has growth that meets 80% or exceeds it?
(A) NOT MET

(Q) Could you please find out whether CNCCCOc1c(Br)cc(CCNC(=O)/C(Cc2ccc(OC)c(Br)c2)=N/O)cc1Br has growth that meets 80% or exceeds it?
(A) NOT MET

* * *

Test system: A549/ATCC NSCLC
Experiment: NCI-60 one-dose screen, 48 h
Conditions: 10 µM unless noted
The panel holds about 83,000 compounds, 20% with a hit somewhere; the sample as a whole holds those more often. The source made the active and inactive calls. How the source made its calls: active means growth percent below 10; inactive means the rest.
# valid calls are label 1 for active, label 0 for inactive; nothing else

Some solved cases for reference:
* COC(=O)c1ccc2c(c1)Oc1ccc(Cl)cc1-c1cc(C)nn1-2 | label 0
* O=C(O)c1ccccc1C(=O)c1ccc(I)cc1 | label 0
* CCN(CC)CC(=O)Nc1c(C)cccc1C | label 0
* Nc1ncnc2c1ccn2-c1cccc(NC(=O)c2cccc(C(F)(F)F)c2)c1 | label 0
* CC(=O)Nc1ccc([I+]c2ccc([N+](=O)[O-])cc2)cc1 | label 0

(Q) // return assay outcome for Cc1ccc2c(c1)Nc1ccc(C)cc1C2(C)C
(A) label 0

(Q) // return assay outcome for COc1ccc(C2=NN(C(=O)COc3ccc(Cl)cc3)C(O)(c3cc(F)c(Cl)cc3Cl)C2)cc1OC (stereo unspecified)
(A) label 0

(Q) // return assay outcome for CC(C)(c1ccc(OCC(O)CNCc2ccco2)cc1)c1ccc(OCC(O)CNCc2ccco2)cc1 (stereo unspecified)
(A) label 0

(Q) // return assay outcome for C#C[C@@]1(O)[C@@H](CO)O[C@@H](n2cc(C(F)(F)F)c3c(N)ncnc32)[C@@H]1O
(A) label 1

(Q) // return assay outcome for COc1cc(Br)c(-c2nc(-c3ccccc3)c(-c3ccccc3)n2Cc2ccccc2)cc1OC
(A) label 0

(Q) // return assay outcome for CCN1CCN(Cc2ccc(NC(=O)Nc3cccc(-n4ccc5c(NC(=O)c6ccccc6)nccc54)c3)cc2C(F)(F)F)CC1
(A) label 0
